- System: antibodies in sera from SARS patients (sera 1a, 1b, 2, 6, 37, 62, London, SARS-yellow, SARS-green)
- Assay type: binding, human
measured metric: Binding of serum 2 to looped/cyclic peptides of protein M of SARS-CoV Urbani

polymer sequence	reading
MESELVIGAVIIRGH	0.6
GLMWLSYFVASFRLF	0.6
TNILLNVPLRGTIVT	0.6
IIKLVFLWLLWPVTL	0.5
LKQLLEQWNLVIGFL	0.4
KLVFLWLLWPVTLAC	0.6
NPETNILLNVPLRGT	0.9
SQRVGTDSGFAAYNR	0.7
RTLSYYKLGASQRVG	0.7
NRYRIGNYKLNTDHA	0.5
ITVATSRTLSYYKLG	0.8
ELVIGAVIIRGHLRM	0.7
LYIIKLVFLWLLWPV	0.5
TVATSRTLSYYKLGA	0.6
RCDIKDLPKEITVAT	0.6
FARTRSMWSFNPETN	0.6

###

- System: antibodies in sera from SARS patients (sera 1a, 1b, 2, 6, 37, 62, London, SARS-yellow, SARS-green)
- Type: binding, human
Form field: Binding of serum 1b to linear peptides of protein M of SARS-CoV Urbani (one value per entry).
measured metric: Binding of serum 1b to linear peptides of protein M of SARS-CoV Urbani

polymer sequence	reading
ESELVIGAVIIRGHL	0.6
NPETNILLNVPLRGT	0.6
AMACIVGLMWLSYFV	0.5
SQRVGTDSGFAAYNR	0.6
LMWLSYFVASFRLFA	0.4
LLEQWNLVIGFLFLA	0.6
TIVTRPLMESELVIG	0.6
MLLQFAYSNRNRFLY	0.4
VIGFLFLAWIMLLQF	0.4
LQFAYSNRNRFLYII	0.5
LYIIKLVFLWLLWPV	0.6
SMWSFNPETNILLNV	0.7
IAMACIVGLMWLSYF	0.5
IVTRPLMESELVIGA	0.7
GFLFLAWIMLLQFAY	0.5
LAWIMLLQFAYSNRN	0.5
RSMWSFNPETNILLN	0.6
WLSYFVASFRLFART	0.5

###

- System: rabbit serum obtained by immunizing a rabbit with the SARS-CoV strain Frankfurt 1
- Assay type: binding
- Design: unit not given here
Use rule met when the recorded Rabbit serum looped peptides is no lower than 0.2; use rule not met when it is lower.

polymer sequence	assigned label
WYLHEGHQTAAFRDV	rule not met
SMWSFNPETNILLNV	rule met
SPLFLIVAALVFLIL	rule met
VTLACFVLAAVYRIN	rule met
HPLADNKFALTCTST	rule not met

###

- System: recombinant human anti-SARS-CoV antibody 03-018
- Assay type: binding
- Design: unit not given here
measured metric: Binding of antibody 03-018 to linear peptides of the N protein of SARS-CoV Urbani

polymer sequence	reading
ASLPYGANKEGIVWV	0.1
RIGMEVTPSGTWLTY	0.1
PARMASGGGETALAL	0.1
LPYGANKEGIVWVAT	0.1
MSDNGPQSNQRSAPR	0.1
WPQIAQFAPSASAFF	0.1
PGSSRGNSPARMASG	0.1
GTTLPKGFYAEGSRG	0.1

###

Form field: Binding of a rabbit serum to looped peptides (one value per entry).
- Test system: rabbit serum obtained by immunizing a rabbit with the SARS-CoV strain Frankfurt 1
- Format: binding
- Parameters: unit not given here
measured metric: Binding of a rabbit serum to looped peptides

polymer sequence	reading
FAGTHITMTTVYHIT	0.4
HLLLVAAGMEAQFLY	0.4
ANPAMDPIYDEPTTT	0.4
LKVTAFQHQNSKKTT	0.3
IENATFFIFNKLVKD	0.5
LVKPTVYVYSRVKNL	0.9
YVVVHGYFTEVYYQL	0.5
LKTHRMCKYTQSTAL	0.5
CRIIMRCWLCWKCKS	0.7
ELLIQQWIQFMMSRR	0.4
TLVLKMLHSSSLTSL	0.4
WLCWKCKSKNPLLYD	0.6
LVLKMLHSSSLTSLL	0.4
MCKYTQSTALQELLI	0.4
DPIYDEPTTTTSVPL	0.5
DGISTPKLKEDYQIG	0.4
SKNPLLYDANYFVCW	0.6
VIGVAFLAVFQSATK	0.6
